Hello, the source for this data is paper PMC9728921, in case you need it.

Target: UniProt:Q8NHM5
Sequence (Q8NHM5 1-1336): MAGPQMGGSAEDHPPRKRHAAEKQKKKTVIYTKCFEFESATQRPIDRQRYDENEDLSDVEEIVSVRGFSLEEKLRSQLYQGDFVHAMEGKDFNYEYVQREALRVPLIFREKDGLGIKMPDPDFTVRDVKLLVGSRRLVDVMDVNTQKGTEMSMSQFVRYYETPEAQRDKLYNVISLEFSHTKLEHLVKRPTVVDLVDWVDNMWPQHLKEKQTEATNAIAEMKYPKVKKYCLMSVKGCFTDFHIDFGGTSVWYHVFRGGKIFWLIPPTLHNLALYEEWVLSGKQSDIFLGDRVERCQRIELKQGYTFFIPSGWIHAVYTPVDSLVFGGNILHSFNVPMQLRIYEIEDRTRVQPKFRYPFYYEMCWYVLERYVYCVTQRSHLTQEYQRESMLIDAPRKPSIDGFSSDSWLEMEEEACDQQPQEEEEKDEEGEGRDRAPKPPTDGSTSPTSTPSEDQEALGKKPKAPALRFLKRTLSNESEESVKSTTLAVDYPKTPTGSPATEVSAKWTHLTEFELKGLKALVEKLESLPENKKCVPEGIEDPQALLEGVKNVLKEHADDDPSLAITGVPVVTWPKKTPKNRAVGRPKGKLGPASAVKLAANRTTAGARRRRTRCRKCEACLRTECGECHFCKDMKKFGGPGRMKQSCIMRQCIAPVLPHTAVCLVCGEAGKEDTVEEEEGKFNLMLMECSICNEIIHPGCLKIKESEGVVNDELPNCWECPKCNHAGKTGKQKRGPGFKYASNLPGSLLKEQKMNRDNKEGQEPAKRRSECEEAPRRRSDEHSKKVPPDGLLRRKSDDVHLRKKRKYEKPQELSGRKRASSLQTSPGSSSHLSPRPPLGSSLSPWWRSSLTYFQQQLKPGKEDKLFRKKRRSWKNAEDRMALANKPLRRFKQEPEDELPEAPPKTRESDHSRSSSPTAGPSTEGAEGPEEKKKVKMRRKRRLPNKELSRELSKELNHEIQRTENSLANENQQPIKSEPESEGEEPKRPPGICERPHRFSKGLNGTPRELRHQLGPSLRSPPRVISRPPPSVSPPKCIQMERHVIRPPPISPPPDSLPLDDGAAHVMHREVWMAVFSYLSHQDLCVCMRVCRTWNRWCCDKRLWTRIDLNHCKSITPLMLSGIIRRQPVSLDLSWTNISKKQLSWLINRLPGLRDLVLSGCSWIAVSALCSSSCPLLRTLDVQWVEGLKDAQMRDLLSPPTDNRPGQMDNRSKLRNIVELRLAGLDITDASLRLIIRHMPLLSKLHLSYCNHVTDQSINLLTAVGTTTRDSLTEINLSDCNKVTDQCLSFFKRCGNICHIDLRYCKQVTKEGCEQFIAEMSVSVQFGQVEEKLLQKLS
READOUT_LABEL: IC50

Kindly note the recorded IC50 for O=C(O)c1ccnc(C(=O)O)c1 [PDCA, 2,4-Pyridinedicarboxylic acid, reference compound] , which is 19 µM

* * *

Test system: PHH
Test: Cytotoxicity in HBV-infected PHH (50% decrease in GAPDH or RPLP0)
Format: cell-based, human
Details: PHH donor Hu349; treated every three to four days for 14 days
READOUT_LABEL: CC50

# SMI, CC50
measured = [
    ("CCOC(=O)c1cc(CNCC(=O)N(CC)CCN(C)C)ncc1Br", "> 10 µM"),
]

Now for another entry.
Kindly note the recorded CC50 for CCOC(=O)c1ccnc(CNCC(=O)N(CC)CCN(C)C)c1 , which is > 10 µM

* * *

System: HBV
Test: Extracellular HBV DNA (vDNA) by qPCR in HBV-infected PHH
Assay type: cell-based
Details: Hepatitis B virus, 336 h, read-out: EC50 range across genotypes, extracellular HBV DNA, range across genotypes; 14 days of dosing
READOUT_LABEL: EC50

Item CCOC(=O)c1ccnc(CNCC(=O)N(CC)CCN(C)C)c1 [GS-5801] ; assay system HBV; EC50 reported as 79 to 250 nM

* * *

Tested on: HBV
Assay: Secreted HBeAg by immunoassay in HBV-infected PHH
Type: cell-based
Settings: Hepatitis B virus, 336 h, read-out: EC50 range across genotypes, secreted HBeAg, range across genotypes; 14 days of dosing
READOUT_LABEL: EC50

Kindly note the recorded EC50 for CCOC(=O)c1ccnc(CNCC(=O)N(CC)CCN(C)C)c1 , which is 300 to 1400 nM

* * *

Molecular target: KDM6B (Homo sapiens)
Sequence (O15054 whole entry): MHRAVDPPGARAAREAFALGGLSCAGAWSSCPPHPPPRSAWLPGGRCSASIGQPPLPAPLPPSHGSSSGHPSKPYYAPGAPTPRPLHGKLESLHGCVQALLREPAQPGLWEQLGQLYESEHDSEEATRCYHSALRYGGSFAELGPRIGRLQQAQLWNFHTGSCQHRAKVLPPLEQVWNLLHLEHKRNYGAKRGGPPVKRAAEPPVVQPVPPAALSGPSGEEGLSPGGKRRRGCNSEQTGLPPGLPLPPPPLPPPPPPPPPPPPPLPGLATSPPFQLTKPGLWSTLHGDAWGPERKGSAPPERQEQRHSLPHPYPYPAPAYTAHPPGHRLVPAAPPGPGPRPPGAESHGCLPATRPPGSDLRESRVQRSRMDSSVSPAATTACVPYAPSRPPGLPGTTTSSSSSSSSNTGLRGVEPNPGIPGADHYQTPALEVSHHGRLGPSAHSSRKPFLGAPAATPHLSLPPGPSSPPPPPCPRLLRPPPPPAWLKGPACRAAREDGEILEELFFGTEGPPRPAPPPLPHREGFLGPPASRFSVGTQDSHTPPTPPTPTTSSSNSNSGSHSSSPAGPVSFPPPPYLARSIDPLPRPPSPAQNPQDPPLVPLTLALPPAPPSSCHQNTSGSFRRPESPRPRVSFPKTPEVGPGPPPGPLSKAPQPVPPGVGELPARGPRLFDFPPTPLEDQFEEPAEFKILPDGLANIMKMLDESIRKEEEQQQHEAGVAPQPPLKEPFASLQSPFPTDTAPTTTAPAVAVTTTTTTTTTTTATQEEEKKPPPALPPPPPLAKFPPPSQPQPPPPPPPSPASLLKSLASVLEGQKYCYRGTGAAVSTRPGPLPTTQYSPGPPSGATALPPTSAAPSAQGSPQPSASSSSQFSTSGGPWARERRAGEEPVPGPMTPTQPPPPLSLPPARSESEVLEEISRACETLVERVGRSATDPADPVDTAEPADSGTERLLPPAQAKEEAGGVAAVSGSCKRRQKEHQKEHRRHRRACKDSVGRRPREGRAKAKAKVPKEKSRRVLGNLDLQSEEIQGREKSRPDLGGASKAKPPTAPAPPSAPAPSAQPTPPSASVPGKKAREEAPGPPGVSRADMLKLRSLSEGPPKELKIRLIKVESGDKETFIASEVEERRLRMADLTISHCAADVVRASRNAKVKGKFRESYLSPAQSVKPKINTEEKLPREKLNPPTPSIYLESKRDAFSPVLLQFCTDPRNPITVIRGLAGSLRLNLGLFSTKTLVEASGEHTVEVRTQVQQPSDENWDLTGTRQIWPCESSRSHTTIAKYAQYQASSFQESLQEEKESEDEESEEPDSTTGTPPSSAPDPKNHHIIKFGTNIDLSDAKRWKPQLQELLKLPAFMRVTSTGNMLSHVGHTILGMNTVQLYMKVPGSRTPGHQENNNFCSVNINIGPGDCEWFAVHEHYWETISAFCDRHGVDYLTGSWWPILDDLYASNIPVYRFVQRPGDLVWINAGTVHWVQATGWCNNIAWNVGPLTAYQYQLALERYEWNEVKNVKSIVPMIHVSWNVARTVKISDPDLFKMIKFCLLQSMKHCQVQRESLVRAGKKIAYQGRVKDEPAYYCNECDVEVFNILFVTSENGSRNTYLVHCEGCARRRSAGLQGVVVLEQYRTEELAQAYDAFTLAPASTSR
Assay: KDM6B enzymatic assay (AlphaLISA)
Type: biochemical
Conditions: enzyme concentration 1 nM; read-out: IC50
READOUT_LABEL: IC50 (µM)
Write the value in µM as a bare number.

Kindly note the recorded IC50 for CCN(CCN(C)C)C(=O)CNCc1cc(C(=O)O)ccn1 [GS-080] , which is 6.2

* * *

Biological target: KDM4B (Homo sapiens, UniProt O94953)
Sequence (O94953 1-1096): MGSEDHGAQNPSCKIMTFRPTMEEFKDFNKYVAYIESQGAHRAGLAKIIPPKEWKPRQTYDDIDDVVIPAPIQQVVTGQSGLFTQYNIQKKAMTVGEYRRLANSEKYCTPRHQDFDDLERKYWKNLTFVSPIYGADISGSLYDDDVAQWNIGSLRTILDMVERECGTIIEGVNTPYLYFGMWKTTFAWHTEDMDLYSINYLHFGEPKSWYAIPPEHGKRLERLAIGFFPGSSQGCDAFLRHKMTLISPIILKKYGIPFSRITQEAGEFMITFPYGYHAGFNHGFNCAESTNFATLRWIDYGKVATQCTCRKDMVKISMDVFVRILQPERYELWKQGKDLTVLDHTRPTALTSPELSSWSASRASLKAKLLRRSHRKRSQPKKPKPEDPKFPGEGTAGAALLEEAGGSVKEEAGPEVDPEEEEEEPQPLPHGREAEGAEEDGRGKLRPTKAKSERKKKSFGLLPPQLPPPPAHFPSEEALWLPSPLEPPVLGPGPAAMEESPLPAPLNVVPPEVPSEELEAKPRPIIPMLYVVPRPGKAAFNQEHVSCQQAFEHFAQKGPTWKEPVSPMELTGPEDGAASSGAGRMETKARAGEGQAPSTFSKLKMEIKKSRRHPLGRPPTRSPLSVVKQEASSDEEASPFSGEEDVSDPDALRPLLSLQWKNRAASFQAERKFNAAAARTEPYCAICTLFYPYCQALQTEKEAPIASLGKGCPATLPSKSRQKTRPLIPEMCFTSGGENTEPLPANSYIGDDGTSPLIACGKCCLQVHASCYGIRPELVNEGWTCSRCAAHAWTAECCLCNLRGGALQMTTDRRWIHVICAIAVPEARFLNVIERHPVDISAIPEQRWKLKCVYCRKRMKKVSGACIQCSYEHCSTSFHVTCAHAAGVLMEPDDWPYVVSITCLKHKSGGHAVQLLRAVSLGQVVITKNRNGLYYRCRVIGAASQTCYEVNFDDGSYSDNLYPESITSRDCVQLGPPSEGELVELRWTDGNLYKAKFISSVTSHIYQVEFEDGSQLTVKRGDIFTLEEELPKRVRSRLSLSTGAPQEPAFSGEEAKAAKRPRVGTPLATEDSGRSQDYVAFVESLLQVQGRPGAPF
READOUT_LABEL: pIC50
Interpret pIC50 as the negative base-10 log of the concentration measured in mol/L.

# MOLECULE, pIC50
records = [
    ("O=C(O)c1ccnc(C(=O)O)c1 [PDCA, 2,4-Pyridinedicarboxylic acid, reference compound]", 6.07),
]

Now for another entry.
Kindly note the recorded pIC50 for CCN(CCN(C)C)C(=O)CNCc1cc(C(=O)O)ccn1 , which is 8.33

* * *

Test: Liver to plasma AUC ratio, rat
Format: in vivo, Sprague Dawley rats
Details: male, Sprague Dawley, liver and plasma, po, 1 mg/kg, read-out: GS-080 liver to plasma AUC ratio
READOUT_LABEL: Kp
Could you keep your reply to the number by itself?

Kindly note the recorded Kp for CCN(CCN(C)C)C(=O)CNCc1cc(C(=O)O)ccn1 , which is 44

* * *

Test: Liver to plasma AUC ratio, cynomolgus monkey
Assay type: in vivo, cynomolgus monkeys
Settings: male, liver and plasma, po, 2.5 mg/kg, read-out: GS-080 liver to plasma AUC ratio
READOUT_LABEL: Kp
Could you keep your reply to the number by itself?

Kindly note the recorded Kp for CCN(CCN(C)C)C(=O)CNCc1cc(C(=O)O)ccn1 , which is 176

* * *

Test: Cytotoxicity CC50, Gal-PC3
Format: cell-based
Conditions: human
READOUT_LABEL: CC50

# COMPOUND, CC50
records = [
    ("CCN(CCN(C)C)C(=O)CNCc1cc(C(=O)O)ccn1", "> 44 µM"),
    ("CCOC(=O)c1ccnc(CNCC(=O)N(CC)CCN(C)C)c1", "> 44 µM"),
]

Now for another entry.
Kindly note the recorded CC50 for COc1ccc(C[C@H](N)C(=O)N[C@H]2[C@@H](O)[C@H](n3cnc4c(N(C)C)ncnc43)O[C@@H]2CO)cc1 [Puromycin, reference compound] , which is 0.44 µM
